From: PubChem BioAssay AID2184

molecular target: Beta-lactamase TEM (Escherichia coli); assay: Serine beta-lactamase TEM-1 inhibition, biochemical epi-absorbance counter-screen for IMP-1/VIM-2 inhibitor program (AID 2184); settings: TEM-1 beta-lactamase, nitrocefin absorbance inhibition; at 5.6 µM; hits give high values
This is one part of the list.
observable: inhibition (%)

1) CN1C(=O)c2cccc3c(N)ccc(c23)C1=O ... 49.7
2) CCC(=C/c1sc2ccc3ccccc3c2[n+]1C)/C=C1\Sc2ccc3ccccc3c2N1C ... -0.12
3) Oc1ccc2ccc3cccc[n+]3c2c1 ... 25.5
4) C/C(=N\Nc1ccc(S(N)(=O)=O)cc1[N+](=O)[O-])c1cccs1 ... 1.6
5) c1ccc(-c2nccc(-c3ccc(-n4cnc5ccccc54)cc3)n2)nc1 ... -3.39
6) Nc1c(C(=O)c2cccs2)sc2nsc(SCCN3CCCCC3)c12 ... 23.4
